System: 966289-007-R4-J1-PDC complex spheroid viability;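 also: spheroids exposed to the agents for seven days before readout; percent viability relative to DMSO vehicle control wells taken as 100%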
testName: Anticancer human tumor 966289-007-R4-J1-PDC patient-derived pancreatic adenocarcinoma cell line growth inhibition [GQUAD]
runConditions: second compound 1 µM; first compound 0.1 µM; active compounds read low
recordedEndpoint: viability, T/C (%)
Write down the numeric answer in % and omit the unit.

The examples below pair each entry with its known result.
{"columns": ["molecule", "viability, T/C [%]"],
 "data": [
  ["CC1COCCN1c1cc(C2(O)CC3CCC(C2)O3)c2cnn(-c3ccn[nH]3)c2n1 (stereo unspecified) + Cc1[nH]c2ccc(F)cc2c1-c1nc2c3cccnc3c3ncccc3c2[nH]1", 61.1],
  ["C#Cc1c(F)ccc2cc(O)cc(-c3ncc4c(N5CC6CCC(C5)N6)nc(OCC56CCCN5CC(F)C6)nc4c3F)c12 (stereo unspecified) + Cc1cnc(CNC(=O)c2c(=O)c3ccc(N4CCCN(C)CC4)nc3n3c2sc2ccccc23)cn1", 4.8],
  ["COc1ccc([C@@H](O)c2cc(-c3ncnc4cc(N5CCOCC5)ccc34)c(F)cc2Cl)nn1 + Cc1cnc(CNC(=O)c2c(=O)c3ccc(N4CCCN(C)CC4)nc3n3c2sc2ccccc23)cn1", 7.76]
]}

Fill blank: measured viability, T/C of the molecule COc1ncnc(C2CC2)c1-c1ncc2cnn(Cc3ccc(-c4nc(C(F)(F)F)cn4C(C)C)cc3)c2n1 + CN(C)c1ccc(Nc2c3ccc(NC(=O)CCN4CCCC4)cc3nc3cc(NC(=O)CCN4CCCC4)ccc23)cc1 is ____.
99.5

Requested read-out: viability, T/C. Entry: Cc1cccc(N(C)C(=O)C2C(O)CCN2c2nc(C)cc(C(F)(F)F)c2C#N)c1 (stereo unspecified) + Cc1cnc(CNC(=O)c2c(=O)c3ccc(N4CCCN(C)CC4)nc3n3c2sc2ccccc23)cn1
6.97

Field request: viability, T/C | item: CC(C)n1c(=O)n(C)c2cnc3cc(F)c(-c4ccc(OCCCN5CCCCC5)nc4)cc3c21 + CN(C)c1ccc(Nc2c3ccc(NC(=O)CCN4CCCC4)cc3nc3cc(NC(=O)CCN4CCCC4)ccc23)cc1
99.5

Which viability, T/C value is on record for O=c1[nH]cc(F)c(=O)[nH]1 + CN(C)c1ccc(Nc2c3ccc(NC(=O)CCN4CCCC4)cc3nc3cc(NC(=O)CCN4CCCC4)ccc23)cc1 ?
107

Data request, read-out viability, T/C, for O=C(NO)c1cnc(N2CCN(S(=O)(=O)c3ccc4ccccc4c3)CC2)nc1 + Cc1cnc(CNC(=O)c2c(=O)c3ccc(N4CCCN(C)CC4)nc3n3c2sc2ccccc23)cn1
2.98

Would you mind telling me what viability, T/C value was observed for COc1ncnc(C2CC2)c1-c1ncc2cnn(Cc3ccc(-c4nc(C(F)(F)F)cn4C(C)C)cc3)c2n1 + Cc1cnc(CNC(=O)c2c(=O)c3ccc(N4CCCN(C)CC4)nc3n3c2sc2ccccc23)cn1 ?
5.74

Requested field: viability, T/C. Item: COc1cccc2c1C(=O)c1c(O)c3c(c(O)c1C2=O)CC(O)(C(=O)CO)CC3OC1CC(N)C(O)C(C)O1 (stereo unspecified) + Cc1[nH]c2ccc(F)cc2c1-c1nc2c3cccnc3c3ncccc3c2[nH]1
14.7

I am curious: what viability, T/C value has been reported for O=c1[nH]cc(F)c(=O)[nH]1 + Cc1[nH]c2ccc(F)cc2c1-c1nc2c3cccnc3c3ncccc3c2[nH]1 ?
76.5
